test system: NCI-H226 lung; assay: NCI-60 one-dose screen, 48 h (100 = growth as untreated, 0 = no growth, -100 = all killed); conditions: 10 µM unless noted
The panel holds about 83,000 compounds, 20% with a hit somewhere; the sample as a whole holds those more often.
RECORDED ENDPOINT: growth (%)
Numbers only; they are read as %.

Worked examples, 2 compounds total:
CC(=O)Nc1c(Cl)cc2c(c1Cl)Cc1cc([N+](=O)[O-])ccc1-2 ... 85
CCOC(=O)/C=C1/SC(=Nc2ccc(C#N)cc2)N(Cc2ccco2)C1=O ... 70.3

Next compound, growth to be filled in.
Query: Query for NCI-H226 lung: what growth does the record show for "CCN(CC)CCOCC[C@H]1CC[C@H]2[C@@H]3[C@H](C)Cc4cc(OS(N)(=O)=O)ccc4[C@H]3CC[C@]12C" ?
Response: -61.9

* * *

Tested on: MOLT-4 leukemia
Assay: NCI-60 one-dose screen, 48 h (100 = growth as untreated, 0 = no growth, -100 = all killed)
Conditions: 10 µM unless noted
Description: Growth inhibition of the MOLT-4 human tumor cell line is measured as a screen for anti-cancer activity. Cells are grown in 96 well plates and exposed to the test compound for 48 hours. Compounds are tested at a single concentration, which is 10^-5 M for most compounds. The reported endpoint is percent growth (GI% or GIPRCNT), where numbers from 0 - 100% represent growth inhibition, and numbers from -100% - 0 represent cell death. For example, a value of 40 represents 60% growth inhibition. […]
Compounds without any hit were thinned out: in the full panel of roughly 83,000, 20% have a hit.
The compounds listed here are annotated with their growth.
Return type: number; implicit unit %.

Guide cases for growth, answers given:
COc1ccc(CNC(=O)c2c(C)n([O-])c3ccccc3[n+]2=O)cc1 ... 93.4
CCCCCCC(CC#N)(CCC)CCCC (stereo unspecified) ... 97.5
c1ccc(-c2n(Cc3ccc4ccccc4c3)cc[n+]2Cc2ccc3ccccc3c2)cc1 ... -24.9
C=C1CCC2C(C)(COC(=O)CC)C(OC(=O)CC)CCC2(C)C1C/C=C1/C(=O)OCC1OC(=O)CC (stereo unspecified) ... -11
O=C(O)CCNS(=O)(=O)c1ccc(-c2ccccc2)cc1 ... 118

Query: What value of growth has been recorded for this entry: "Cc1ccc(NC(=O)c2sc3nc4c(cc3c2N)C(=O)CCC4)cc1"
Response: 95.9

Query: Then what about the compound "O[N+]1=CC=CCC1=S.On1ccccc1=S.[Zn]" ?
Response: -36.1

Query: What do we get for C[N+]1(C)C2CC[C@@H]1CC(OC(=O)C(O)c1ccccc1)C2 (stereo partly specified) ?
Response: 126

Query: Now try "CCN(CC)CCCCCCCNc1c2ccc(Cl)cc2nc2ccc(OC)cc12" .
Response: -11.3

Query: Note, next up: "CCOC(=O)C(C(=O)OCC)C1CCCCC1"
Response: 102

Query: # iterate: "COc1cccc(/C=N/Nc2nc3ccccc3s2)c1OC"
Response: 74.4

Query: Then "Nc1ccccc1C#Cc1ccccc1C#Cc1ccc(OCCCCCCOc2ccc(C#Cc3ccccc3C#Cc3ccccc3N)cc2)cc1" ?
Response: 103

Query: Same lookup for Cc1ccc(C2=NNC(c3sc(Cl)nc3Cl)C2)cc1 (stereo unspecified) , please.
Response: 8.29

Query: Another: "COc1cc(/C=N/OC(=O)Nc2ccccc2)cc(OC)c1OC"
Response: 100

Query: Also need COc1ccc(C2=NN(C(C)=O)C(c3c(C)nn(-c4ccccc4)c3N3CCOCC3)C2)cc1 (stereo unspecified) , thanks.
Response: 88

Query: Further, for "CSc1nc(Nc2ccc(S(=O)(=O)Nc3ccon3)cc2)c(C#N)c(-c2ccc(Cl)cc2)n1" ?
Response: -20.8
